Molecular target: UniProtKB P51677
Sequence (P51677 whole entry): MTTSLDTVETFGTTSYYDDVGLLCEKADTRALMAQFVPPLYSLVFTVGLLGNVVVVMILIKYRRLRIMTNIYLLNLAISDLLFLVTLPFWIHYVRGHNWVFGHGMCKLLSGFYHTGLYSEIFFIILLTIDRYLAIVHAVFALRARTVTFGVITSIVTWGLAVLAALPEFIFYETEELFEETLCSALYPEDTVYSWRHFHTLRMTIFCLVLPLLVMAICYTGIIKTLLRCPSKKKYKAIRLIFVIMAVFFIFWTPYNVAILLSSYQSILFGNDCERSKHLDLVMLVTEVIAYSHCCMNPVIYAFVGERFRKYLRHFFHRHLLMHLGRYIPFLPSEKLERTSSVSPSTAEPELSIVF
Assay: Figure S2a opioid peptide screen on chemokine receptors
Design: dose or concentration left out as unconfirmed
Settings: read-out: CCR3 activity, ctrl+ = 100, Figure S2a; replicate 1
Starred links: 1 amine or outer side, 2 acyl side, 3 side chain; linkers in the order of their positions; H or OH if unused. Non-standard residues stand in square brackets, D forms with d. Residues, ends and D or L forms follow the SMILES beside them. X1 = N[C@@H](Cc1ccccc1)CN(CC(=O)[*:2])[*:1]
# activation per record follows
Your answer should be a plain number; it is taken to be in %.

Task item: What does the data say about its activation? Entry: C[C@H](NC(=O)CNC(=O)[C@@H](NC(=O)[C@H](Cc1ccccc1)NC(=O)CNC(=O)CNC(=O)[C@@H](N)Cc1ccccc1)[C@@H](C)O)C(=O)N[C@@H](CCCNC(=N)N)C(=O)N[C@@H](CCCCN)C(=O)N[C@@H](CO)C(=O)N[C@@H](C)C(=O)N[C@@H](CCCNC(=N)N)C(=O)N[C@@H](CCCCN)C(N)=O [Nociceptin 1-13]
Reply: 6.49

Task item: What does the data say about its activation? Entry: NC(=O)[C@H](Cc1ccccc1)NC(=O)[C@H](Cc1c[nH]c2ccccc12)NC(=O)[C@@H]1CCCN1C(=O)[C@@H](N)Cc1ccc(O)cc1 [Endomorphin-1]
Reply: 18.4

Task item: What does the data say about its activation? Entry: C[C@H](NC(=O)CNC(=O)[C@@H](NC(=O)[C@H](Cc1ccccc1)NC(=O)CNC(=O)CNC[C@@H](N)Cc1ccccc1)[C@@H](C)O)C(=O)N[C@@H](CCCNC(=N)N)C(=O)N[C@@H](CCCCN)C(=O)N[C@@H](CO)C(=O)N[C@@H](C)C(=O)N[C@@H](CCCNC(=N)N)C(=O)N[C@@H](CCCCN)C(N)=O [FG Nociceptin 1-13] (H-[X1]GFTGARKSARK-NH2)
Reply: 13

Task item: What does the data say about its activation? Entry: CC(C)C[C@H](NC(=O)[C@H](Cc1ccccc1)NC(=O)CNC(=O)CNC(=O)[C@@H](N)Cc1ccc(O)cc1)C(=O)N[C@@H](CCCN=C(N)N)C(=O)N[C@@H](CCCN=C(N)N)C(=O)N[C@@H](CCC(N)=O)C(=O)N[C@@H](Cc1ccccc1)C(=O)N[C@@H](CCCCN)C(=O)N[C@H](C(=O)N[C@H](C(=O)N[C@H](C(=O)O)[C@@H](C)O)C(C)C)C(C)C [Dynorphin B]
Reply: 22.6

Task item: What does the data say about its activation? Entry: CC[C@H](C)[C@H](NC(=O)[C@H](CCCNC(=N)N)NC(=O)[C@H](CCCNC(=N)N)NC(=O)[C@H](CC(C)C)NC(=O)[C@H](Cc1ccccc1)NC(=O)CNC(=O)CN)C(=O)N[C@@H](CCCNC(=N)N)C(=O)N1CCC[C@H]1C(=O)N[C@@H](CCCCN)C(=O)N[C@@H](CC(C)C)C(=O)N[C@@H](CCCCN)C(=O)N[C@@H](Cc1c[nH]c2ccccc12)C(=O)N[C@@H](CC(=O)O)C(=O)N[C@@H](CC(N)=O)C(=O)N[C@@H](CCC(N)=O)C(=O)O [Dynorphin 2-17]
Reply: 12.7

Task item: What does the data say about its activation? Entry: CC(C)C[C@H](NC(=O)[C@H](CCCCN)NC(=O)[C@H](CCCN=C(N)N)NC(=O)[C@H](C)NC(=O)[C@H](CO)NC(=O)[C@H](CCCCN)NC(=O)[C@H](CCCN=C(N)N)NC(=O)[C@H](C)NC(=O)CNC(=O)[C@@H](NC(=O)[C@H](Cc1ccccc1)NC(=O)CNC(=O)CNC(=O)[C@@H](N)Cc1ccccc1)[C@@H](C)O)C(=O)N[C@@H](C)C(=O)N[C@@H](CC(N)=O)C(=O)N[C@@H](CCC(N)=O)C(=O)O [Nociceptin]
Reply: 8.85

Task item: What does the data say about its activation? Entry: CSCC[C@H](NC(=O)[C@H](Cc1ccccc1)NC(=O)CNC(=O)CNC(=O)[C@@H](N)Cc1ccc(O)cc1)C(=O)N[C@@H](CCCNC(=N)N)C(=O)N[C@@H](CCCNC(=N)N)C(=O)N[C@H](C(N)=O)C(C)C [Adrenorphin]
Reply: 10.9

# credit: paper PMC7305236
